Bridge positions count the residues as written; N and C are the ends. Peptide text beside a SMILES is read from it.
System: CD13 (aminopeptidase N) (Homo sapiens, UniProt P15144) | Read-out: Ki
Sequence (P15144 whole entry, species assumed): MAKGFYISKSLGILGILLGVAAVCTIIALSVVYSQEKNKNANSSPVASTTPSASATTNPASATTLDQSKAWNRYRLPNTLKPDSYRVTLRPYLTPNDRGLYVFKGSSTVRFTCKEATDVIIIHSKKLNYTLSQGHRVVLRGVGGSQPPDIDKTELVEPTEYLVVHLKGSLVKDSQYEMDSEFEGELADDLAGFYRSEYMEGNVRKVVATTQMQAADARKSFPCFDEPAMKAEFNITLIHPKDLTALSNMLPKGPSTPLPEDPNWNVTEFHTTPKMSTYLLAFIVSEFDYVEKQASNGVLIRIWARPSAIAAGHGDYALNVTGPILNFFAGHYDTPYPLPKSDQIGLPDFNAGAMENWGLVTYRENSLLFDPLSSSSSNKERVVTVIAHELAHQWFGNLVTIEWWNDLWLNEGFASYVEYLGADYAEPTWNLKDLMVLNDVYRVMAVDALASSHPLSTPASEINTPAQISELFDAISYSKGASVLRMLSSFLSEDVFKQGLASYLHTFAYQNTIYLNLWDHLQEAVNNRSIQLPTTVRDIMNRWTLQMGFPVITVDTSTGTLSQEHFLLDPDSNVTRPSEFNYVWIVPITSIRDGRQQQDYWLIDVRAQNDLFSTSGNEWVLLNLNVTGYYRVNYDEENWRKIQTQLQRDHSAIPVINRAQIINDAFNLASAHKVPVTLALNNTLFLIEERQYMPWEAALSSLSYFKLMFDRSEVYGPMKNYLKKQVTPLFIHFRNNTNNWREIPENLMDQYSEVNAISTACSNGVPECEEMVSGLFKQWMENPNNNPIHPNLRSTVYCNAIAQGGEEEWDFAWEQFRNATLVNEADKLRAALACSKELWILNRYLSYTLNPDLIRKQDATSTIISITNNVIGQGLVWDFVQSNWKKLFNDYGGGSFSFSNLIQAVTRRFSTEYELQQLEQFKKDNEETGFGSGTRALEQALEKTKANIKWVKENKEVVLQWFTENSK
reported.property: Ki (µM)

1: N=C(N)NCCC[C@@H]1NC(=O)CNC(=O)[C@H](CC(N)=O)NC(=O)CNC(=O)[C@H](CS)NC(=O)CNC1=O [N1, c[CGNGRG]] (cyclo(CGNGRG))
2: N=C(N)NCCC[C@@H]1NC(=O)CNC(=O)[C@H](CC(N)=O)NC(=O)[C@@H](N)CSSC[C@@H](C(=O)O)NC1=O [CNGRC, reference compound] (H-CNGRC-OH; disulfide 1-5; N-terminus and C-terminus assumed)
Req: Looking at recorded values for Ki, does 1 or 2 come in lower? Field: selected label. Fill in the label of the entry you choose.
Resp: 1
(1: 12.4 µM, 2: 134 µM)
